Below, each entry is listed alongside its reported log kw (y-intercept of log k versus [CH3CN] % plot, Figure S80).
- testDetails: Lipophilicity by HPLC (log kw)
- Assay type: physicochemical
- conditionLabel: linear fit
Please give only the number in your answer, with no unit.

In the examples that follow, each entry is paired with its recorded log kw (y-intercept of log k versus [CH3CN] % plot, Figure S80).
>  <compound>
Cc1c(C)c2c3c4c1=CC=C[N]4[Pt+2]([OH])([O]C(=O)Cc1ccc(I)cc1)[N]3C=CC=2.N[C@H]1CCCC[C@@H]1N

>  <recordedMeasurement>
1.1909

$$$$
>  <compound>
Cc1c(C)c2c3c4c1=CC=C[N]4[Pt+2]([OH])([O]C(=O)Cc1ccc(Cl)cc1)[N]3C=CC=2.N[C@H]1CCCC[C@@H]1N

>  <recordedMeasurement>
0.9477

$$$$

Field: next compound
-- ask Using the record for N[C@H]1CCCC[C@@H]1N.O=C([O-])Cc1ccc(F)cc1.[OH-].[Pt+4].c1cnc2c(c1)ccc1cccnc12 [Complex 3, [Pt^IV(phen)(SS-DACH)(4-FPA)(OH)]^2+] , report its log kw (y-intercept of log k versus [CH3CN] % plot, Figure S80).
-- reply 0.249

----------
- testDetails: Lipophilicity by HPLC (log kw)
- Format: physicochemical
- conditionLabel: linear fit
quantityKind: log kw (y-intercept of log k versus [CH3CN] % plot, Figure S80)
Please give only the number in your answer, with no unit.

In the examples that follow, each entry is paired with its recorded log kw (y-intercept of log k versus [CH3CN] % plot, Figure S80).
>  <molecule>
Cc1c(C)c2c3c4c1=CC=C[N]4[Pt+2]([OH])([O]C(=O)Cc1ccc(F)cc1)[N]3C=CC=2.N[C@H]1CCCC[C@@H]1N [Complex 4]

>  <recordedMeasurement>
0.8042

$$$$
>  <molecule>
N[C@H]1CCCC[C@@H]1N.O=C(Cc1ccc(I)cc1)[O][Pt+2]1([OH])[N]2C=CC=c3ccc4c(c32)[N]1C=CC=4 [Complex 7, [Pt^IV(phen)(SS-DACH)(4-IPA)(OH)]^2+]

>  <recordedMeasurement>
0.895

$$$$
>  <molecule>
N[C@H]1CCCC[C@@H]1N.O=C(Cc1ccc(Cl)cc1)[O][Pt+2]1([OH])[N]2C=CC=c3ccc4c(c32)[N]1C=CC=4 [Complex 1, [Pt^IV(phen)(SS-DACH)(4-CPA)(OH)]^2+]

>  <recordedMeasurement>
0.7472

$$$$
>  <molecule>
Cc1c(C)c2c3c4c1=CC=C[N]4[Pt+2]([OH])([O]C(=O)Cc1ccc(Br)cc1)[N]3C=CC=2.N[C@H]1CCCC[C@@H]1N [Complex 6]

>  <recordedMeasurement>
1.0701

$$$$

-- ask Using the record for N[C@H]1CCCC[C@@H]1N.O=C([O-])Cc1ccc(Br)cc1.[OH-].[Pt+4].c1cnc2c(c1)ccc1cccnc12 [Complex 5, [Pt^IV(phen)(SS-DACH)(4-BPA)(OH)]^2+] , report its log kw (y-intercept of log k versus [CH3CN] % plot, Figure S80).
-- reply 0.8765

----------
- testDetails: Reduction experiments with AsA by 1H-NMR and 1D-195Pt-NMR
- Type: physicochemical
- conditionLabel: 10 mM PBS (~7.4 pH), D2O, 37 °C, 1H-NMR
Below, each entry is listed alongside its reported T50% (approximate time at which 50% reduction occurs).

In the examples that follow, each entry is paired with its recorded T50% (approximate time at which 50% reduction occurs).
>  <compound>
N[C@H]1CCCC[C@@H]1N.O=C([O-])Cc1ccc(Br)cc1.[OH-].[Pt+4].c1cnc2c(c1)ccc1cccnc12 [Complex 5, [Pt^IV(phen)(SS-DACH)(4-BPA)(OH)]^2+]

>  <recordedMeasurement>
15 to 20 min

$$$$
>  <compound>
Cc1c(C)c2c3c4c1=CC=C[N]4[Pt+2]([OH])([O]C(=O)Cc1ccc(I)cc1)[N]3C=CC=2.N[C@H]1CCCC[C@@H]1N

>  <recordedMeasurement>
5 to 10 min

$$$$
>  <compound>
Cc1c(C)c2c3c4c1=CC=C[N]4[Pt+2]([OH])([O]C(=O)Cc1ccc(F)cc1)[N]3C=CC=2.N[C@H]1CCCC[C@@H]1N

>  <recordedMeasurement>
20 to 25 min

$$$$
>  <compound>
Cc1c(C)c2c3c4c1=CC=C[N]4[Pt+2]([OH])([O]C(=O)Cc1ccc(Br)cc1)[N]3C=CC=2.N[C@H]1CCCC[C@@H]1N

>  <recordedMeasurement>
30 min

$$$$
>  <compound>
N[C@H]1CCCC[C@@H]1N.O=C(Cc1ccc(I)cc1)[O][Pt+2]1([OH])[N]2C=CC=c3ccc4c(c32)[N]1C=CC=4 [Complex 7, [Pt^IV(phen)(SS-DACH)(4-IPA)(OH)]^2+]

>  <recordedMeasurement>
30 min

$$$$

-- ask Using the record for "Cc1c(C)c2c3c4c1=CC=C[N]4[Pt+2]([OH])([O]C(=O)Cc1ccc(Cl)cc1)[N]3C=CC=2.N[C@H]1CCCC[C@@H]1N" , report its T50% (approximate time at which 50% reduction occurs).
-- reply 20 to 25 min

-- ask Using the record for N[C@H]1CCCC[C@@H]1N.O=C(Cc1ccc(Cl)cc1)[O][Pt+2]1([OH])[N]2C=CC=c3ccc4c(c32)[N]1C=CC=4 [Complex 1, [Pt^IV(phen)(SS-DACH)(4-CPA)(OH)]^2+] , report its T50% (approximate time at which 50% reduction occurs).
-- reply 15 to 20 min

-- ask Using the record for N[C@H]1CCCC[C@@H]1N.O=C([O-])Cc1ccc(F)cc1.[OH-].[Pt+4].c1cnc2c(c1)ccc1cccnc12 [Complex 3, [Pt^IV(phen)(SS-DACH)(4-FPA)(OH)]^2+] , report its T50% (approximate time at which 50% reduction occurs).
-- reply 5 to 10 min

----------
- Test system: ADDP-resistant ovarian variant
- testDetails: MTT growth inhibition assay, ADDP
- Format: cell-based, human
- conditionLabel: MTT assay, 72 h
Below, each entry is listed alongside its reported GI50.
Could you give me the number in nM? Just the number is fine.

In the examples that follow, each entry is paired with its recorded GI50.
>  <molecule>
Cc1c(C)c2c3c4c1=CC=C[N]4[Pt+2]([OH])([O]C(=O)Cc1ccc(F)cc1)[N]3C=CC=2.N[C@H]1CCCC[C@@H]1N [Complex 4]

>  <valueUnits>
nM

>  <GI50>
6

$$$$
>  <molecule>
Cc1c(C)c2c3c4c1=CC=C[N]4[Pt+2]([OH])([O]C(=O)Cc1ccc(Br)cc1)[N]3C=CC=2.N[C@H]1CCCC[C@@H]1N [Complex 6]

>  <valueUnits>
nM

>  <GI50>
6

$$$$
>  <molecule>
N[C@H]1CCCC[C@@H]1N.O=C([O-])Cc1ccc(F)cc1.[OH-].[Pt+4].c1cnc2c(c1)ccc1cccnc12 [Complex 3, [Pt^IV(phen)(SS-DACH)(4-FPA)(OH)]^2+]

>  <valueUnits>
nM

>  <GI50>
250

$$$$
>  <molecule>
N[C@H]1CCCC[C@@H]1N.O=C(Cc1ccc(Cl)cc1)[O][Pt+2]1([OH])[N]2C=CC=c3ccc4c(c32)[N]1C=CC=4 [Complex 1, [Pt^IV(phen)(SS-DACH)(4-CPA)(OH)]^2+]

>  <valueUnits>
nM

>  <GI50>
290

$$$$
>  <molecule>
Cc1c(C)c2c3c4c1=CC=C[N]4[Pt+2]([OH])([O]C(=O)Cc1ccc(I)cc1)[N]3C=CC=2.N[C@H]1CCCC[C@@H]1N [Complex 8]

>  <valueUnits>
nM

>  <GI50>
230

$$$$
>  <molecule>
N[C@H]1CCCC[C@@H]1N.O=C(Cc1ccc(I)cc1)[O][Pt+2]1([OH])[N]2C=CC=c3ccc4c(c32)[N]1C=CC=4 [Complex 7, [Pt^IV(phen)(SS-DACH)(4-IPA)(OH)]^2+]

>  <valueUnits>
nM

>  <GI50>
280

$$$$
>  <molecule>
N[C@H]1CCCC[C@@H]1N.O=C([O-])Cc1ccc(Br)cc1.[OH-].[Pt+4].c1cnc2c(c1)ccc1cccnc12 [Complex 5, [Pt^IV(phen)(SS-DACH)(4-BPA)(OH)]^2+]

>  <valueUnits>
nM

>  <GI50>
250

$$$$

Field: next molecule
-- ask Using the record for Cc1c(C)c2c3c4c1=CC=C[N]4[Pt+2]([OH])([O]C(=O)Cc1ccc(Cl)cc1)[N]3C=CC=2.N[C@H]1CCCC[C@@H]1N [Complex 2] , report its GI50.
-- reply 26

----------
Below, each entry is listed alongside its reported GI50.
- Tested on: MIA pancreas
- testDetails: MTT growth inhibition assay, MIA
- Type: cell-based, human
- conditionLabel: 72 h
Could you give me the number in µM? Just the number is fine.

In the examples that follow, each entry is paired with its recorded GI50.
>  <compound>
N[C@H]1CCCC[C@@H]1N.O=C([O-])Cc1ccc(F)cc1.[OH-].[Pt+4].c1cnc2c(c1)ccc1cccnc12 [Complex 3, [Pt^IV(phen)(SS-DACH)(4-FPA)(OH)]^2+]

>  <systemTested>
MIA pancreas

>  <valueUnits>
µM

>  <GI50>
0.23

$$$$
>  <compound>
Cc1c(C)c2c3c4c1=CC=C[N]4[Pt+2]([OH])([O]C(=O)Cc1ccc(Br)cc1)[N]3C=CC=2.N[C@H]1CCCC[C@@H]1N

>  <systemTested>
MIA pancreas

>  <valueUnits>
µM

>  <GI50>
0.007

$$$$
>  <compound>
Cc1c(C)c2c3c4c1=CC=C[N]4[Pt+2]([OH])([O]C(=O)Cc1ccc(Cl)cc1)[N]3C=CC=2.N[C@H]1CCCC[C@@H]1N

>  <systemTested>
MIA pancreas

>  <valueUnits>
µM

>  <GI50>
0.028

$$$$
>  <compound>
Cc1c(C)c2c3c4c1=CC=C[N]4[Pt+2]([OH])([O]C(=O)Cc1ccc(I)cc1)[N]3C=CC=2.N[C@H]1CCCC[C@@H]1N

>  <systemTested>
MIA pancreas

>  <valueUnits>
µM

>  <GI50>
0.3

$$$$
>  <compound>
N[C@H]1CCCC[C@@H]1N.O=C(Cc1ccc(I)cc1)[O][Pt+2]1([OH])[N]2C=CC=c3ccc4c(c32)[N]1C=CC=4 [Complex 7, [Pt^IV(phen)(SS-DACH)(4-IPA)(OH)]^2+]

>  <systemTested>
MIA pancreas

>  <valueUnits>
µM

>  <GI50>
0.36

$$$$

-- ask Can you look up GI50 on MIA pancreas for N[C@H]1CCCC[C@@H]1N.O=C([O-])Cc1ccc(Br)cc1.[OH-].[Pt+4].c1cnc2c(c1)ccc1cccnc12 [Complex 5, [Pt^IV(phen)(SS-DACH)(4-BPA)(OH)]^2+] ?
-- reply 0.2

-- ask Can you look up GI50 on MIA pancreas for "Cc1c(C)c2c3c4c1=CC=C[N]4[Pt+2]([OH])([O]C(=O)Cc1ccc(F)cc1)[N]3C=CC=2.N[C@H]1CCCC[C@@H]1N" ?
-- reply 0.005

-- ask Can you look up GI50 on MIA pancreas for N[C@H]1CCCC[C@@H]1N.O=C(Cc1ccc(Cl)cc1)[O][Pt+2]1([OH])[N]2C=CC=c3ccc4c(c32)[N]1C=CC=4 [Complex 1, [Pt^IV(phen)(SS-DACH)(4-CPA)(OH)]^2+] ?
-- reply 0.27
